Data origin: patent US6340703B1

- PROCEDURE_TEXT: pharmacokinetic study of formononetin following oral administration
- Type: in vivo
- PROTOCOL_CONDITIONS: blood; human, oral 9.3 mg formononetin; read-out: half life in the blood stream (converted)

CPD_SMILES: COc1ccc(-c2coc3cc(O)ccc3c2=O)cc1
half-life: ~1200 min
